Please go through the items and note down their IC50.
Target Desc: human orexin-1 receptor (Homo sapiens (Human), UniProt O43613)
Sequence (O43613 whole entry): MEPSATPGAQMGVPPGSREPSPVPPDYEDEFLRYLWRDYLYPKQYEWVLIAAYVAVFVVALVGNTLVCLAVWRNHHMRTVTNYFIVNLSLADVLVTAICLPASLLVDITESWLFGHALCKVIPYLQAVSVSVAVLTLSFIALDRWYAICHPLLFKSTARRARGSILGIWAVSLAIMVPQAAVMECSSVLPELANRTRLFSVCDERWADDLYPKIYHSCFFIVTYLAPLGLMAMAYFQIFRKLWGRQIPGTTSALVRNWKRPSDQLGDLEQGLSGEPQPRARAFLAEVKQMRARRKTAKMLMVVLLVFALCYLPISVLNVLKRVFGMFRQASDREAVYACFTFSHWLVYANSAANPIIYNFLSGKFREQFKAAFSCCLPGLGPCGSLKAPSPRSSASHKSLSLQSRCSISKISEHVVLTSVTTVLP
Assay Comment: In vitro assay: intracellular calcium measurements (FLIPR), antagonistic activity
Type: cell-based
Experimental Setup: CHO cells, 3 nM orexin-A, compound incubation time of 10 min; marked values are geometric means of n = 2-6; read-out: IC50 OX1
Please state the figure in nM; there is no need to write the unit.

Consider the compound shown here: COc1cccc(OC)c1[C@@H]1C[C@H](Cl)C(=O)N1Cc1ccc(OC(F)(F)F)cc1 (racemic) [Example 261] What is its recorded IC50?
65

Consider the compound shown here: COc1cccc(OCC(O)CO)c1C1CCCC(=O)N1Cc1ccc(OC(F)(F)F)cc1 (centres unmarked) [Example 214] What is its recorded IC50?
3540

Consider the compound shown here: COc1cccc(OC)c1C1CCCC(=O)N1Cc1ccc(OC(F)(F)F)cc1 (centres unmarked) [Example 156] What is its recorded IC50?
259

Consider the compound shown here: CCCOc1ccc(CN2C(=O)CCCC2c2c(OC)cccc2OC)cc1 (centres unmarked) [Example 207] What is its recorded IC50?
169

Consider the compound shown here: COc1cccc(OC)c1C1CCC(=O)N1Cc1ccc(OC(F)(F)F)cc1 (centres unmarked) [Example 196] What is its recorded IC50?
724

Consider the compound shown here: COc1cccc(OC)c1C1CCCC(=O)N1Cc1cn2ccccc2n1 (centres unmarked) [Example 242] What is its recorded IC50?
17700

Consider the compound shown here: COc1cccc(OCC2CC2)c1C1CCCC(=O)N1Cc1ccc(OC(F)(F)F)cc1 (centres unmarked) [Example 210] What is its recorded IC50?
2550

Consider the compound shown here: COc1cccc(OC)c1C1CNCC(=O)N1Cc1ccc(OC(F)(F)F)cc1 (centres unmarked) [Example 267] What is its recorded IC50?
2680

Consider the compound shown here: COc1cccc(OC)c1C1CCCC(=O)N1Cc1cc2ccccc2n1C (centres unmarked) [Example 247] What is its recorded IC50?
132

Consider the compound shown here: CCOc1ccccc1C1CCCC(=O)N1Cc1ccc(OC(F)(F)F)cc1 (centres unmarked) [Example 251] What is its recorded IC50?
4070

Consider the compound shown here: COc1cccc(OC)c1C1CCCCC(=O)N1Cc1ccc(OC(F)(F)F)cc1 (centres unmarked) [Example 193] What is its recorded IC50?
257

Consider the compound shown here: COc1cccc(OC)c1C1CC(C)(C)CC(=O)N1Cc1ccc(OC(F)(F)F)cc1 (centres unmarked) [Example 174] What is its recorded IC50?
1800

Consider the compound shown here: COc1cccc(OCCO)c1C1CCCC(=O)N1Cc1ccc(OC(F)(F)F)cc1 (centres unmarked) [Example 213] What is its recorded IC50?
1380

Consider the compound shown here: COc1ccccc1C1CCCC(=O)N1Cc1ccc(OC(F)(F)F)cc1 (centres unmarked) [Example 237] What is its recorded IC50?
3490

Consider the compound shown here: COc1cccc(OC)c1C1CCCC(=O)N1Cc1ccccc1-c1ccccc1 (centres unmarked) [Example 190] What is its recorded IC50?
1950

Consider the compound shown here: COc1cccc(OC)c1C1CC(C)C(=O)N1Cc1cccc(OC(F)F)n1 (centres unmarked) [Example 201] What is its recorded IC50?
955

Consider the compound shown here: COc1cccc(OC)c1C1CCCC(=O)N1Cc1cnc2ccccc2c1 (centres unmarked) [Example 1] What is its recorded IC50?
643
